B1: Azoarcus group I ribozyme (parent)
chain: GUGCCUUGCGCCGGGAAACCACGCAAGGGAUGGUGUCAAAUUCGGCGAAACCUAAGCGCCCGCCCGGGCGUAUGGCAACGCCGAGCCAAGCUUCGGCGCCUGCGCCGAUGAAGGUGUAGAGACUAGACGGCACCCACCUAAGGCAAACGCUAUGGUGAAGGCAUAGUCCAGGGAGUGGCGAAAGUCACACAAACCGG

Variants of: B1
Test Protocol: reverse-splicing fitness (ratio to wild type); higher = more active; in vitro selection; Mg2+ level not given
Value Type: reverse-splicing fitness
Give a plain numeric answer without units written out.

Return reported reverse-splicing fitness; argument: A111G A120U A145U C150A C169G
0.00763

// returns reported reverse-splicing fitness for input C82A A111U A120U A145U U176A
0.0073

What value of reverse-splicing fitness has been recorded for this entry: C82U A111G C150U C169G
0.0092

Request the reported reverse-splicing fitness associated with A111U A145G C150U C169A
0.025

Data request, read-out reverse-splicing fitness, for A111C A120G C150G C169G U176G
0.00457

Need reverse-splicing fitness, item A120G C150U C169U U176C
0.159

Reported reverse-splicing fitness for C82G A111G A120U A145C C169G U176C : what is it?
0.00181

Name the recorded reverse-splicing fitness for C82G A111C A120C A145C C169U .
0.0151

Suppose we examine the variant C82U A111C A120G A145U C150G ; what reverse-splicing fitness value has been reported?
0.00658

Requested read-out: reverse-splicing fitness. Entry: C82A A111C A120C C150G C169A
0.00831

What reverse-splicing fitness value was documented for this variant, C82A A111G A145G C150U C169G U176G ?
0.00644

Bench note: what reverse-splicing fitness did C82G A111U A120G A145C U176A show?
0.012

Quick check: reverse-splicing fitness of A111C A120G A145C C150A C169A U176G ?
0.0054

Value lookup for reverse-splicing fitness; key = C82G A111U A120C A145C C150A C169A U176A
0.0162

Give the measured reverse-splicing fitness of C82A A111U A120G A145G C150U C169U U176C .
0.0156

Quick one: reverse-splicing fitness of A111G A145G C150A C169U U176A ?
0.0202

Look up reverse-splicing fitness: C82A A120G C150G C169G U176C
0.00462

Given the variant C82U A111U A120G A145G C169A U176G , what is its reported reverse-splicing fitness?
0.00433

Any idea what its reverse-splicing fitness is? The variant is C82U A120C A145G C150G C169G U176G
0.00504
